These measurements were taken from patent US20230263822A1.

Assay: Hematology assays in cynomolgus monkeys (Example 45)
Format: in vivo
Conditions: day 64
metric: basophils
Put down the number, then write its unit next to it.

[ask] Which basophils value belongs to ISIS 417002: MOE gapmer, nucleobases 1275 to 1318 of SEQ ID NO: 1 (Table 8) (antisense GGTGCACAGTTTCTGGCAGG; MOE gapmer, wing and gap sizes not given here) ?
[reply] 0.2%

[ask] Please answer likewise for ISIS 416858: MOE gapmer, nucleobases 1275 to 1318 of SEQ ID NO: 1 (Table 8) (antisense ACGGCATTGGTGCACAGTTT; MOE gapmer, wing and gap sizes not given here)
[reply] 0.4%

[ask] Please answer likewise for ISIS 416850: MOE gapmer, nucleobases 1275 to 1318 of SEQ ID NO: 1 (Table 8) (antisense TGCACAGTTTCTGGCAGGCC; MOE gapmer, wing and gap sizes not given here)
[reply] 0.4%

[ask] Please answer likewise for ISIS 416838: MOE gapmer, nucleobases 1018 to 1042 of SEQ ID NO: 1 (Table 6) (antisense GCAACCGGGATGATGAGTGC; MOE gapmer, wing and gap sizes not given here)
[reply] 0.4%

[ask] Please answer likewise for ISIS 416864: MOE gapmer, nucleobases 1275 to 1318 of SEQ ID NO: 1 (Table 8) (antisense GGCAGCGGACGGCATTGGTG; MOE gapmer, wing and gap sizes not given here)
[reply] 0.4%

====

I'd appreciate it if you could supply hematocrit values for the items below.
Test: Hematology assays in cynomolgus monkeys (Example 45)
Assay type: in vivo
Details: day 78; escalating dose regimen
Reply numerically in %, unit not repeated.

[ask] Which hematocrit value belongs to ISIS 416864: MOE gapmer, nucleobases 1275 to 1318 of SEQ ID NO: 1 (Table 8) (antisense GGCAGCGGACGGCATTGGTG; MOE gapmer, wing and gap sizes not given here) ?
[reply] 39

[ask] Please answer likewise for ISIS 416858: MOE gapmer, nucleobases 1275 to 1318 of SEQ ID NO: 1 (Table 8) (antisense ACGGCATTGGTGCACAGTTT; MOE gapmer, wing and gap sizes not given here)
[reply] 39

====

Tested on: human Factor 11 mRNA
Assay: Dose-dependent inhibition of human Factor 11 in HepG2 cells, electroporation 123.46-10,000 nM (Example 31)
Assay type: cell-based
Details: electroporation, 1,111.11 nM, approx. 16 hours, relative to untreated control cells
Strand notation (5' to 3'): a small letter for the sugar, then the base; units joined by * are phosphorothioate-linked, units joined directly phosphodiester-linked; [ ] holds rarer units or linkages, { } end groups; capitals alone tell only the bases. e = 2'-O-(2-methoxyethyl) (MOE); [5mC] = 5-methylcytosine; d = 2'-deoxy (DNA)
metric: Percent inhibition of Factor 11 mRNA at 1,111.11 nM

[ask] Which Percent inhibition of Factor 11 mRNA at 1,111.11 nM value belongs to 416850 (antisense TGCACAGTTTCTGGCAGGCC; 5-10-5 gapmer, further chemistry not given here) [compound 416850] ?
[reply] 36%

[ask] Please answer likewise for 445504 (antisense eG*eG*e[5mC]*eA*eT*eT*dG*dG*dT*dG*d[5mC]*dA*d[5mC]*dA*eG*eT*eT*eT*e[5mC]*eT) [compound 445504]
[reply] 38%

[ask] Please answer likewise for 416851 (antisense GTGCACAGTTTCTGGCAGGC; 5-10-5 gapmer, further chemistry not given here) [compound 416851]
[reply] 36%

====

Details: rat, in vivo, sc, 50 mg/kg
e = 2'-O-(2-methoxyethyl) (MOE); d = 2'-deoxy (DNA)
I'd appreciate it if you could supply Lymphocyte values for the items below.
Reply with just the number.

[ask] Which Lymphocyte value belongs to ISIS 412223: 5-10-5 MOE gapmer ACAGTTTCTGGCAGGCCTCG (sugars from the 5' end e5 d10 e5, backbone and methylation of C not given here) ?
[reply] 16990

[ask] Please answer likewise for ISIS 412225: 5-10-5 MOE gapmer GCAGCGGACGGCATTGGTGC (sugars from the 5' end e5 d10 e5, backbone and methylation of C not given here)
[reply] 13204

[ask] Please answer likewise for ISIS 416856: MOE gapmer, nucleobases 1275 to 1318 of SEQ ID NO: 1 (Table 8) (antisense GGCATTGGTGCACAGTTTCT; MOE gapmer, wing and gap sizes not given here)
[reply] 14328

[ask] Please answer likewise for ISIS 413482: 5-10-5 MOE gapmer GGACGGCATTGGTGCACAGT (sugars from the 5' end e5 d10 e5, backbone and methylation of C not given here)
[reply] 11430

[ask] Please answer likewise for ISIS 416866: MOE gapmer, nucleobases 1275 to 1318 of SEQ ID NO: 1 (Table 8) (antisense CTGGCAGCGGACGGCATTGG; MOE gapmer, wing and gap sizes not given here)
[reply] 16834

[ask] Please answer likewise for ISIS 416861: MOE gapmer, nucleobases 1275 to 1318 of SEQ ID NO: 1 (Table 8) (antisense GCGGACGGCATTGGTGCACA; MOE gapmer, wing and gap sizes not given here)
[reply] 12865

====

Tested on: fibrinogen
Assay: Fibrinogen assay (Example 45)
Type: in vivo, cynomolgus monkeys
Details: plasma; day 8; escalating dose regimen
I'd appreciate it if you could supply fibrinogen levels values for the items below.
Reply numerically in mg/dL, unit not repeated.

[ask] Please tell me: fibrinogen levels of ISIS 416858: MOE gapmer, nucleobases 1275 to 1318 of SEQ ID NO: 1 (Table 8) (antisense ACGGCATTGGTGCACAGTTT; MOE gapmer, wing and gap sizes not given here) , system fibrinogen?
[reply] 246

[ask] Please answer likewise for ISIS 416850: MOE gapmer, nucleobases 1275 to 1318 of SEQ ID NO: 1 (Table 8) (antisense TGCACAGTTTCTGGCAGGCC; MOE gapmer, wing and gap sizes not given here)
[reply] 281

[ask] Please answer likewise for ISIS 417002: MOE gapmer, nucleobases 1275 to 1318 of SEQ ID NO: 1 (Table 8) (antisense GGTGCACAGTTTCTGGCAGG; MOE gapmer, wing and gap sizes not given here)
[reply] 221

[ask] Please answer likewise for ISIS 416838: MOE gapmer, nucleobases 1018 to 1042 of SEQ ID NO: 1 (Table 6) (antisense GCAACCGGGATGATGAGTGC; MOE gapmer, wing and gap sizes not given here)
[reply] 209

[ask] Please answer likewise for ISIS 416864: MOE gapmer, nucleobases 1275 to 1318 of SEQ ID NO: 1 (Table 8) (antisense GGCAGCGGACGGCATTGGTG; MOE gapmer, wing and gap sizes not given here)
[reply] 227

====

I'd appreciate it if you could supply percent inhibition of Factor 11 activity, relative to PBS control values for the items below.
Tested on: Factor 11 activity
Test: Factor 11 protein activity, F11 assay based on clotting time (Example 45)
Type: in vivo, cynomolgus monkeys
Conditions: day 15; escalating dose regimen
Reply numerically in %, unit not repeated.

[ask] Which percent inhibition of Factor 11 activity, relative to PBS control value belongs to ISIS 416864: MOE gapmer, nucleobases 1275 to 1318 of SEQ ID NO: 1 (Table 8) (antisense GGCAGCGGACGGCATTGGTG; MOE gapmer, wing and gap sizes not given here) ?
[reply] 9

[ask] Please answer likewise for ISIS 416850: MOE gapmer, nucleobases 1275 to 1318 of SEQ ID NO: 1 (Table 8) (antisense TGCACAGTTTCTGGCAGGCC; MOE gapmer, wing and gap sizes not given here)
[reply] 4

[ask] Please answer likewise for ISIS 416858: MOE gapmer, nucleobases 1275 to 1318 of SEQ ID NO: 1 (Table 8) (antisense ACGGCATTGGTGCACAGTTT; MOE gapmer, wing and gap sizes not given here)
[reply] 16

[ask] Please answer likewise for ISIS 417002: MOE gapmer, nucleobases 1275 to 1318 of SEQ ID NO: 1 (Table 8) (antisense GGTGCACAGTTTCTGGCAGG; MOE gapmer, wing and gap sizes not given here)
[reply] 4

[ask] Please answer likewise for ISIS 416838: MOE gapmer, nucleobases 1018 to 1042 of SEQ ID NO: 1 (Table 6) (antisense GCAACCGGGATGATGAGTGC; MOE gapmer, wing and gap sizes not given here)
[reply] 4

====

Test: Hematology assays in cynomolgus monkeys (Example 46)
Assay type: in vivo
Conditions: Day 45
Strand notation (5' to 3'): a small letter for the sugar, then the base; units joined by * are phosphorothioate-linked, units joined directly phosphodiester-linked; [ ] holds rarer units or linkages, { } end groups; capitals alone tell only the bases. e = 2'-O-(2-methoxyethyl) (MOE); [5mC] = 5-methylcytosine; d = 2'-deoxy (DNA)
I'd appreciate it if you could supply MCHC values for the items below.
Reply numerically in g/dL, unit not repeated.

[ask] Which MCHC value belongs to ISIS 449711: 3-8-3, 4-8-4, 2-10-2, 3-10-3 or 4-10-4 MOE microwalk gapmer (Table 46) (antisense eA*e[5mC]*dA*dG*dT*dT*dT*d[5mC]*dT*dG*dG*d[5mC]*eA*eG) ?
[reply] 29.6

[ask] Please answer likewise for ISIS 445531: 5-8-5 or 6-8-6 MOE microwalk gapmer (Table 44) (antisense eG*eG*e[5mC]*eA*eT*dT*dG*dG*dT*dG*d[5mC]*dA*d[5mC]*eA*eG*eT*eT*eT)
[reply] 29.0

[ask] Please answer likewise for ISIS 445522: 5-8-5 or 6-8-6 MOE microwalk gapmer (Table 44) (antisense eG*e[5mC]*eA*e[5mC]*eA*dG*dT*dT*dT*d[5mC]*dT*dG*dG*e[5mC]*eA*eG*eG*e[5mC])
[reply] 30.7
